All figures here come from ChEMBL document CHEMBL4007453.

protocol_details: Aqueous solubility of the compound in citrate buffer at pH 5 after 90 mins by laser nephelometric method
Type: physicochemical
Threshold rule: solubility kinetic at 1.5 h greater than or equal to 50 µg/mL is fulfilled; below that, not fulfilled.

Q: In plain terms: is recorded solubility kinetic at 1.5 h at least 50 µg/mL for Cc1ccoc1C(=O)N1CCCn2nc(C(=O)Cc3ccccc3)cc2C1 ?
Result: not fulfilled

Q: In plain terms: is recorded solubility kinetic at 1.5 h at least 50 µg/mL for Cc1ccoc1C(=O)N1CCCn2nc(C(=O)Nc3ccccc3)cc2C1 ?
Result: fulfilled

Q: In plain terms: is recorded solubility kinetic at 1.5 h at least 50 µg/mL for COc1ccccc1NC(=O)c1cc2n(n1)CCCN(C(=O)c1occc1C)C2 ?
Result: not fulfilled

Q: In plain terms: is recorded solubility kinetic at 1.5 h at least 50 µg/mL for Cc1ccoc1C(=O)N1CCCn2nc(C(=O)N(C)c3ccccc3)cc2C1 ?
Result: not fulfilled

---

protocol_details: Antiviral activity against influenza A virus (A/WSN/1933(H1N1)) infected in MDCK cells assessed as reduction in viral replication measured after […] by bioluminescence assay
Format: functional, cell-based
endpoint: EC50

EC50 in this record for Cc1ccoc1C(=O)N1CCCn2nc(C(=O)Nc3ccccc3)cc2C1 : > 20 µM

---

Can you tell me t1/2 for the items I'm about to list?
System: Liver
protocol_details: Half life in human liver microsomes at 1 uM by LC-MS analysis
Assay type: ADME, microsome
Field format: number, assumed h, no unit text.

Lab note: compound Cc1ccoc1C(=O)N1CCCn2nc(C(=O)Nc3ccc(F)cc3Cl)cc2C1 tested on Liver; recorded t1/2 was 3.6

Lab note: compound Cc1ccoc1C(=O)N1CCCn2nc(C(=O)Nc3ccccc3F)cc2C1 tested on Liver; recorded t1/2 was 5.3

Lab note: compound Cc1ccoc1C(=O)N1CCCn2nc(C(=O)Nc3ccccc3)cc2C1 tested on Liver; recorded t1/2 was 4.7

Lab note: compound Cc1ccoc1C(=O)N1CCCn2nc(C(=O)Cc3ccccc3)cc2C1 tested on Liver; recorded t1/2 was 0.7

---

Tested on: BEAS-2B
protocol_details: Cytotoxicity against human BEAS2B cells after 48 hrs by PrestoBlue staining based fluorescence assay
Format: cell-based
Rule: CC50 below 10 µM gives 1 (yes), anything at or above gives 0 (no).

Q: # TODO verify CC50 < 10 µM strictly for this molecule: COc1ccccc1NC(=O)c1cc2n(n1)CCCN(C(=O)c1occc1C)C2
Result: 1 (yes)

Q: # TODO verify CC50 < 10 µM strictly for this molecule: COc1cccc(NC(=O)c2cc3n(n2)CCCN(C(=O)c2occc2C)C3)c1
Result: 0 (no)

Q: # TODO verify CC50 < 10 µM strictly for this molecule: Cc1cccc(NC(=O)c2cc3n(n2)CCCN(C(=O)c2occc2C)C3)c1
Result: 1 (yes)

Q: # TODO verify CC50 < 10 µM strictly for this molecule: Cc1coc(C(=O)N2CCCn3nc(C(=O)Nc4ccccc4)cc3C2)c1C
Result: 0 (no)

Q: # TODO verify CC50 < 10 µM strictly for this molecule: Cc1ccccc1NC(=O)c1cc2n(n1)CCCN(C(=O)c1occc1C)C2
Result: 1 (yes)

Q: # TODO verify CC50 < 10 µM strictly for this molecule: Cc1ccoc1C(=O)N1CCCn2nc(C(=O)NCc3ccccc3)cc2C1
Result: 0 (no)

Q: # TODO verify CC50 < 10 µM strictly for this molecule: O=C(Nc1ccccc1)c1cc2n(n1)CCCN(C(=O)c1occc1C(F)(F)F)C2
Result: 0 (no)

Q: # TODO verify CC50 < 10 µM strictly for this molecule: Cc1ccoc1C(=O)N1CCCn2nc(C(=O)Nc3ccc(F)cc3)cc2C1
Result: 0 (no)
